Catalogue of Test A disease control rating readings, one per entry.
- Test system: Septoria tritici
- procedure details: Test A: wheat leaf blotch, preventive spray on wheat seedlings
- Type: in vivo
- recorded conditions: 50 ppm, 100 = 100% disease control, 0 = no control
Numbers only; they are read as %.

# example entries with known answers
{"columns": ["smiles", "numeric result"],
 "data": [
  ["Cc1ccc(Nc2c(-c3c(F)cccc3Cl)c(C)nn2C)c([N+](=O)[O-])c1", 100],
  ["Cc1nn(C)c(Nc2c(F)cc(Br)cc2[N+](=O)[O-])c1-c1ccc(C#N)cc1Cl", 99],
  ["COc1ccc(-c2c(C)nn(C)c2Nc2c(F)cc(C)cc2[N+](=O)[O-])c(Cl)c1", 100]
]}

Shift focus to the following entry.
Name the recorded Test A disease control rating for COc1cc(F)c(-c2c(C)nn(C)c2Nc2c(F)cccc2[N+](=O)[O-])c(F)c1 .
100

---

- Tested on: Septoria tritici
- procedure details: Test A: wheat leaf blotch, preventive spray on wheat seedlings
- Assay type: in vivo
- recorded conditions: 50 ppm, 100 = 100% disease control, 0 = no control
Catalogue of Test A disease control rating readings, one per entry.
Numbers only; they are read as %.

# example entries with known answers
{"columns": ["smiles", "target or system", "unit spec", "Test A disease control rating"],
 "data": [
  ["Cc1nn(C)c(Nc2c(Cl)cccc2[N+](=O)[O-])c1-c1c(F)cccc1F", "Septoria tritici", "%", 100],
  ["COc1ccc(-c2c(C)nn(C)c2Nc2c(Cl)cccc2[N+](=O)[O-])c(C)c1", "Septoria tritici", "%", 99],
  ["Cc1nn(C)c(Nc2c(F)cccc2[N+](=O)[O-])c1-c1ccc([N+](=O)[O-])cc1Cl", "Septoria tritici", "%", 100]
]}

Shift focus to the following entry.
Name the recorded Test A disease control rating for Cc1nn(C)c(Nc2c(Cl)cc(F)cc2[N+](=O)[O-])c1-c1ccc(Cl)cc1Cl .
100

---

Catalogue of Test A disease control rating readings, one per entry.
- System: Septoria tritici
- procedure details: Test A: wheat leaf blotch, preventive spray on wheat seedlings
- Type: in vivo
- recorded conditions: 50 ppm, 100 = 100% disease control, 0 = no control
Numbers only; they are read as %.

# example entries with known answers
{"columns": ["compound", "unit spec", "numeric result"],
 "data": [
  ["COc1cc(F)c(Nc2c(-c3c(F)cccc3F)c(C)nn2C)c([N+](=O)[O-])c1 [compound 97]", "%", 100],
  ["Cc1nn(C)c(Nc2c(F)cccc2[N+](=O)[O-])c1-c1c(F)cccc1Cl [compound 25]", "%", 100],
  ["COc1ccc(-c2c(C)nn(C)c2Nc2c(F)cc(Cl)cc2[N+](=O)[O-])c(Cl)c1 [compound 81]", "%", 100],
  ["Cc1cc(F)c(Nc2c(-c3ccc(Cl)cc3Cl)c(C)nn2C)c([N+](=O)[O-])c1 [compound 143]", "%", 99],
  ["CCc1nn(C)c(Nc2ccc(OC)cc2[N+](=O)[O-])c1-c1ccc(F)cc1Cl [compound 173]", "%", 100]
]}

For the record Cc1nn(C)c(Nc2ccccc2[N+](=O)[O-])c1-c1ccc(F)cc1Cl [compound 126] , what value of Test A disease control rating is listed for Septoria tritici?
98

For the record COc1ccc(Nc2c(-c3c(F)cc(F)cc3Br)c(C)nn2C)c([N+](=O)[O-])c1 [compound 164] , what value of Test A disease control rating is listed for Septoria tritici?
100

For the record Cc1nn(C)c(Nc2c(F)cc(F)cc2[N+](=O)[O-])c1-c1ccc(C#N)cc1Cl [compound 120] , what value of Test A disease control rating is listed for Septoria tritici?
100
